Entries and their measured Population Apoptotic (%) follow.
Tested on: Fibroblast
run.description: Multiplex assay against human fibroblast
Assay type: toxicity, cell-based
experimental.conditions: 12 h, 1 µM, compound concentration 1 uM, replicate 2
Write it as a number; the unit % goes unstated.

Lab entry: Fibroblast assay, compound CN(C)C/C=C/C(=O)Nc1ccc(C(=O)N2CCCC(Nc3ncc(Cl)c(-c4c[nH]c5ccccc45)n3)C2)cc1 (configuration not stated) , Population Apoptotic (%) = 46

###

Entries and their measured Population Normal (%) follow.
Tested on: Fibroblast
run.description: Multiplex assay against human fibroblast
Type: toxicity, cell-based
experimental.conditions: 24 h, 10 µM, compound concentration 10 uM, replicate 1
Write it as a number; the unit % goes unstated.

// below: answered molecules
CC(C)(O)C(=O)N1CCN(c2ccc(C(F)(F)F)c(C3=C(c4c[nH]c5ccccc45)C(=O)NC3=O)c2)CC1 : 92
CCCCCCNC(=O)Nc1ccc(S(=O)(=O)Nc2ccc(CCNC[C@H](O)COc3ccc(O)cc3)cc2)cc1 [L-755507] : 91
CN1CCC(C(=O)c2cccc(NC(=O)c3c(F)cc(F)cc3F)n2)CC1 : 96
COCCCN1CCC(NC(=O)c2cc(Cl)c(N)c3c2OCC3)CC1 [PRUCALOPRIDE] : 93

Could you now consider this next molecule?
Per the record, S=C(NCCCc1c[nH]cn1)NCCCN(Cc1ccc(Cl)c(Cl)c1)c1ccc(Br)cn1 has Population Normal (%) of 98

Reference for the values: ChEMBL document CHEMBL5058577
